- Tested on: K4 kissing-loop RNA reporter;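 also: bound reporter read as fluorescence of individual clusters on recovered sequencing chips by microscopy, with normalized cluster intensities fitted with a binding model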
- Assay Comment: apparent KD of K4 kissing-loop reporter; higher = weaker reporter binding
- Run Parameters: Eterna round: R107; input ligand: theophylline 20 uM
I would appreciate it if you labelled entries condition met when apparent KD of K4 kissing-loop reporter is 300 nM or higher, otherwise condition not met.

| Seq Text | Group |
| --- | --- |
| AGAGUCAGACAAAAGUCUGGCUCAGCCGAAGGAGCGUCCGUAAGGACAGGUAGGUCGCGGCUAUUUGAGUGAUGUUUGGGUUCCU [KL-SSArg-A20] | condition not met |
| UACAGGGCGAGUGAUGUUUGCUCAUGUGAUACCAGUGCCAUCCAACACCCUUGGCAGCAUGCGGGCAGUGAUGUUGUCCUUGGUU [Exclusion Theophylline A GF11] | condition not met |
| AAAAUAAAUAGCAGUCAUGGAGUGAUGUUCCGAGGACCGGUACGGCCGCCACUCGACCAUCAUAAGAUGGAAUGGCAAGACUGCA [#SwitchBubble 23 #K4Early] | condition met |
| UAAUAAAUUCCAGCUGUAUCACUCUUCGAAGGAGCGGACGAAAGUCCAGGUAGGUCGCGAAGAGUGAUGUUCUUUGCGGCGCUGG [Omei KL Arginine A Exc A v6] | condition not met |
| UAGCUCUACAGAAGGAGCGACGUUCUUAGACAGUGAUGUUGUCUAUAGUGAAUAUAGGAACGUCAGGUAGGUCGCUGUAGAGCUA [Arg B SS t11] | condition not met |
| GUUCGAUUCUGAGUGAUGUUGAGAAUUGAGAAGGAUAUCCAGAAAAGGAGAAGGUCUACGUCAUGCGCCUCGAUUUGCUAGCUGC [theeternabot_exclusion_KL_FMN_A_50] | condition met |
